Could you please report measured glass transition temperature for the items listed next?

Dear colleague, could you please provide glass transition temperature for the compounds listed below?
1. *c1ccc(Sc2ccc(Sc3ccc(Sc4ccc(N5C(=O)c6ccc(-c7cccc8c7C(=O)N(*)C8=O)cc6C5=O)cc4)cc3)cc2)cc1 (repeat unit)
2. *CCCOc1ccc(-c2ccc(O*)c3ccccc23)c2ccccc12 (repeat unit)

[A]
226.70 °C
182.00 °C

I would be grateful if you could provide glass transition temperature for each of the following entries.
1. *c1ccc(Oc2ccc(C3(c4ccc(Oc5ccc(N6C(=O)c7ccc(Oc8ccc(C9(c%10ccc(Oc%11ccc%12c(c%11)C(=O)N(*)C%12=O)cc%10)CCC(C(C)(C)C)CC9)cc8)cc7C6=O)cc5)cc4)CC4CC3C3CCCC43)cc2)cc1 (repeat unit)
2. *CCN(CCOC(=O)Nc1ccc(C)c(NC(=O)O*)c1)c1ccc(/N=N/c2ccc([N+](=O)[O-])cc2C)c(C)c1 (repeat unit)
3. *CC(*)(C)C(=O)OCCCCCCOc1ccc2cc(C(=O)Oc3ccccc3)ccc2c1 (repeat unit)

[A]
1: 257.00 °C; 2: 135.00 °C; 3: 39.00 °C

Return reported glass transition temperature values for all items listed beneath this line.
1. *Oc1c(C)cc(C2(c3cc(C)c(OC(=O)c4cccc(C(*)=O)c4)c(C)c3)c3ccccc3-c3ccccc32)cc1C (repeat unit)
2. *Oc1cc(CCCCCCCC)cc(OC(=O)c2cccc(C(*)=O)c2)c1 (repeat unit)
3. *O[Si](*)(C)CCCCCCCCCCC(=O)Oc1ccc(-c2ccc(OC(=O)c3ccc(OCC(C)CC)cc3)cc2)cc1 (repeat unit)
4. *c1ccc(Oc2ccc(N3C(=O)c4ccc(Oc5ccc6c(c5)C(=O)N(*)C6=O)cc4C3=O)cc2Br)c(Br)c1 (repeat unit)
5. *Oc1ccc(CC(NC(=O)CCc2ccc(OC(*)=O)cc2)C(=O)OCCCCCC)cc1 (repeat unit)
6. *CCCN(*)C(=O)CCCCC (repeat unit)
7. *CC(*)(C)C(=O)OCCCCCCCCCCOc1ccc(OC(=O)c2ccc(-c3ccc(OC)cc3)cc2)cc1 (repeat unit)

[A]
1. 315.00 °C
2. 50.50 °C
3. 29.20 °C
4. 251.00 °C
5. 51.50 °C
6. -16.00 °C
7. 57.00 °C

List reported glass transition temperature for each of these compounds:
1. *CCCCCCCCCCOc1ccc(/C=N/c2ccc(-c3ccc(/N=C/c4ccc(O*)cc4O)c(OC)c3)cc2OC)c(O)c1 (repeat unit)
2. *C(=O)c1ccc2c(c1)C(=O)N(c1cccc(Cc3ccc(C(=O)c4cccc(N5C(=O)c6ccc(*)cc6C5=O)c4)cc3)c1)C2=O (repeat unit)

[A]
1. 72.00 °C
2. 265.50 °C

###

PROPERTY LABEL: glass transition temperature (°C)
Give bare numbers, in °C.

Some entries whose results are on file:
| MOLECULE | glass transition temperature / °C |
| --- | --- |
| *C(=O)Nc1ccc(Oc2ccc(-c3ccc(Oc4ccc(NC(=O)c5ccc6c(c5)C(=O)N(c5ccc(Oc7ccc(C8(c9ccc(Oc%10ccc(N%11C(=O)c%12ccc(*)cc%12C%11=O)cc%10)cc9)CC9CC8C8CCCC98)cc7)cc5)C6=O)cc4)cc3C)c(C)c2)cc1 (repeat unit) | 265.00 |
| *CC(*)C(=O)OCC(F)(F)C(F)(F)C(F)(F)C(F)F (repeat unit) | -35.00 |
| *Oc1cccc(OC(=O)c2cccc(C(*)=O)c2)c1 (repeat unit) | 147.00 |
| *Oc1c(C)cc(-c2cc(CBr)c(Oc3ccc(C(=O)c4ccc(*)cc4)cc3)c(CBr)c2)cc1CBr (repeat unit) | 163.67 |
| *CCCCCCOC(=O)c1cccc(C(=O)O*)c1 (repeat unit) | 5.50 |
| *c1cccc(C(O)c2cccc(N3C(=O)c4ccc(Oc5ccc6c(c5)C(=O)N(*)C6=O)cc4C3=O)c2)c1 (repeat unit) | 252.00 |
| *c1nc(-c2ccccc2)nc(N(c2ccccc2)c2ncnc(N(*)c3ccccc3)n2)n1 (repeat unit) | 279.00 |
| *CC(*)c1ccc(C(C)C)cc1 (repeat unit) | 62.40 |
| *CCCCOc1ccc(CCc2ccc(O*)cc2C)cc1 (repeat unit) | 24.90 |
| *c1ccc2c(c1)C(=O)N(c1ccc(Oc3cccc(Oc4ccc(N5C(=O)c6ccc(C(*)(C(F)(F)F)C(F)(F)F)cc6C5=O)cc4)c3)cc1)C2=O (repeat unit) | 241.50 |

Dear colleague, could you send me glass transition temperature for each of the items below? Thanks.
1. *CCOCCOC(=O)c1ccc(-c2ccc(C(=O)O*)cc2)cc1 (repeat unit)
2. *CC(*)(C)C(=O)OCCCCCC(=O)Oc1ccc(OC(=O)c2ccc(OCCC)cc2)cc1 (repeat unit)

[A]
1: 50.00; 2: 45.00

Go through the items and report each one's glass transition temperature.
1. *CCCCCCCOC(=O)c1ccc(C(=O)O*)cc1 (repeat unit)
2. *Oc1ccc(OC(=O)c2cc(OCCCCCCCCCCCC)c(C(*)=O)cc2OCCCCCCCCCCCC)cc1-c1ccccc1 (repeat unit)
3. *Oc1ccc(NC(=O)c2cc(C(=O)Nc3ccc(*)cc3)cc(C(C)(C)C)c2)cc1 (repeat unit)

[A]
-1.00
96.00
268.00

[Q] Tell me its glass transition temperature given *c1ccc2c(c1)C(=O)N(c1cc(C(=O)Nc3c(C)cc(-c4cc(C)c(NC(=O)c5ccc(C)c(N6C(=O)c7ccc(C(*)(C(F)(F)F)C(F)(F)F)cc7C6=O)c5)c(C)c4)cc3C)ccc1C)C2=O (repeat unit) as the entry.
[A] 250.00

###

Threshold check on glass transition temperature: at or above 100 °C gives Fulfilled, strictly below gives Not fulfilled.

Here's what some known entries look like.
| COMPOUND | LABEL |
| --- | --- |
| *CC(COCC)O* (repeat unit) | Not fulfilled |
| *Oc1ccc(C(=O)c2ccc(Oc3ccc(C(=O)c4ccc(C(=O)c5ccc(*)cc5)cc4)cc3)cc2)cc1 (repeat unit) | Fulfilled |
| *Nc1cccc2c1C(=O)c1cccc(N[Se]*)c1C2=O (repeat unit) | Not fulfilled |

[Q] Decide: glass transition temperature of *CC(*)c1ccc(C(C)(C)O)cc1 (repeat unit) >= 100 °C?
[A] Fulfilled

[Q] Reported glass transition temperature reaches at least 100 °C for */C=C/C1CC(*)C2C(=O)N(CCCC)C(=O)C12 (repeat unit) ?
[A] Fulfilled

[Q] Threshold query (glass transition temperature >= 100 °C) on *CC(CCCCCC)O* (repeat unit)
[A] Not fulfilled

###

Give t when the value for glass transition temperature is at least 70 °C. Give f when it is less.

// below: answered molecules
| MOLECULE | LABEL |
| --- | --- |
| *c1nnc(-c2cc(CCCCCCCCCC)c(-c3sc(-c4nnc(-c5cc(OCCCCCCCC)c(*)cc5OCCCCCCCC)o4)cc3CCCCCCCCCC)s2)o1 (repeat unit) | f |
| *CC(*)C(=O)OCC(F)(F)C(F)C(F)(F)F (repeat unit) | f |
| *COc1ccc(C(C)(C)c2ccc(Oc3ccc(*)n3-c3ccc(C#N)cc3)cc2)cc1 (repeat unit) | t |
| *Oc1ccc(C(=O)c2ccc(Oc3ccc(C4(c5ccc(*)cc5)c5ccccc5-c5ccccc54)cc3)cc2)c2ccccc12 (repeat unit) | t |
| *OC(=O)OCCOCCOCCOCCOC(=O)OC1COC2C(*)COC12 (repeat unit) | f |

[Q] Please tell me: is the molecule *CC(*)c1ccc(C(=O)OCCC)cc1 (repeat unit) at or over 70 °C in terms of glass transition temperature?
[A] t

[Q] Is glass transition temperature for *c1ccc(Oc2ccc(C(=O)c3cccc(-c4cccc(C(=O)c5ccc(Oc6ccc(-c7nc(-c8cccc(-c9nc(*)c(-c%10ccccc%10)[nH]9)c8)[nH]c7-c7ccccc7)cc6)cc5)c4)c3)cc2)cc1 (repeat unit) at or above 70 °C?
[A] t

###

In this scheme, each record receives a class according to its glass transition temperature; the ranges are bucket A = under 100 °C, bucket B = from 100 °C up to 200 °C, bucket C = 200 °C and over

Illustrative cases are given below, each with its answer.
| COMPOUND | LABEL |
| --- | --- |
| *Oc1ccc(Oc2cccc(*)n2)c(-c2ccccc2)c1 (repeat unit) | bucket B |
| *CC(*)(C)C(=O)OCCCCCCCCCCCCCCCCCC (repeat unit) | bucket A |
| *CCCCOC(=O)c1cccc(C(=O)O*)c1 (repeat unit) [Poly(tetramethylene isophthalate)] | bucket A |
| *C(=O)NC1CCCC(*)O1 (repeat unit) | bucket B |
| *Nc1cccc(/C=C/c2ccc(NC(=O)c3cccc(C(*)=O)c3)cc2)c1 (repeat unit) | bucket C |
| *c1c(C)cc(C)c(-n2c(=O)c3cc4c(=O)n(*)c(=O)c4cc3c2=O)c1C (repeat unit) | bucket C |
| *Oc1ccc(C(C)(CCC#N)c2ccc(OC(*)=O)cc2)cc1 (repeat unit) | bucket B |
| *C(=O)Oc1ccc(OC(=O)c2ccc3c(c2)C(=O)N(c2ccc(Oc4ccc(N5C(=O)c6ccc(*)cc6C5=O)cc4)cc2)C3=O)c(C(C)(C)C)c1 (repeat unit) | bucket B |
| *CC(*)(C)C(=O)OCCCCCCOc1ccc(/N=N/c2ccc(OCCCCCCCCCC)cc2)cc1 (repeat unit) | bucket B |
| *c1ccc(Cc2ccc(N3C(=O)c4ccc([Si](C)(C)O[Si](C)(C)O[Si](C)(C)c5ccc6c(c5)C(=O)N(*)C6=O)cc4C3=O)cc2)cc1 (repeat unit) | bucket C |

[Q] Which bin should I file *C(=O)Nc1cccc(NC(=O)c2ccc3c(c2)C(=O)N(c2ccc(Oc4cccc5c(Oc6ccc(N7C(=O)c8ccc(*)cc8C7=O)cc6)cccc45)cc2)C3=O)c1 (repeat unit) under?
[A] bucket C

[Q] Field: class (glass transition temperature) — entry: *CC(O)COC(=O)CCCCCCCCCCC(=O)OCC(O)COc1ccc(O*)cc1 (repeat unit)
[A] bucket A

[Q] Into which category would you place *c1ccc(Oc2ccc(C(=O)c3ccc(Oc4ccc(-c5c6c(c(*)c7ccccc57)C(=O)N(c5ccc(Cl)cc5)C6=O)cc4)cc3)cc2)cc1 (repeat unit) ?
[A] bucket C

[Q] Would you mind sorting *CCOC(=O)c1ccc(C2(C)CC(C)(C)c3ccc(C(=O)O*)cc32)cc1 (repeat unit) into the appropriate category?
[A] bucket B

[Q] Consider *CCCCCCCCCCCCc1nc2ccc(-c3ccc4nc(*)oc4c3)cc2o1 (repeat unit) . To which glass transition temperature class does it belong?
[A] bucket A

Data provenance is the PolyMetriX glass transition set.
